Origin of measurements: ChEMBL document CHEMBL3098034

System: Staphylococcus aureus
Assay: Bactericidal activity against Staphylococcus aureus ATCC 29213 after 24 hrs by CFU counting assay
Format: functional
Conditions: ATCC 29213, 24 h
Please provide measured MBC for the entries that follow.

| compound | MBC |
| --- | --- |
| C[C@](O)(CCl)P(=O)(Oc1ccccc1)Oc1ccccc1 | ≥ 256 µg/mL |

Provide MBC values for the following items, in order.
1. O=P(Oc1ccccc1)(Oc1ccccc1)[C@@]1(O)CCC[C@@H]1Cl (mixture of isomers)
2. O=P(Oc1ccccc1)(Oc1ccccc1)[C@](O)(CCl)c1ccccc1
3. O=P(Oc1ccccc1)(Oc1ccccc1)[C@@]1(O)c2ccccc2C[C@@H]1Cl (mixture of isomers)
4. CC1(C)COP(=O)([C@@](O)(CCl)c2ccc(Cl)cc2)OC1
5. O=C(N[C@H](CO)[C@H](O)c1ccc([N+](=O)[O-])cc1)C(Cl)Cl

1: ≥ 256 µg/mL; 2: 64 µg/mL; 3: 256 µg/mL; 4: 128 µg/mL; 5: 64 µg/mL

###

System: Pseudomonas aeruginosa
Experiment: Antibacterial activity against multidrug-resistant Pseudomonas aeruginosa PAO1 after 24 hrs by broth microdilution method
Format: functional
Details: PAO1, 24 h
measured.quantity: MIC (µg/mL)
Give bare numbers, in µg/mL.

Below, 3 compounds whose answers are already recorded.
| compound | MIC / µg/mL |
| --- | --- |
| CC1(C)COP(=O)([C@@](O)(CCl)c2ccc(Cl)cc2)OC1 | 128 |
| O=P(Oc1ccccc1)(Oc1ccccc1)[C@](O)(CCl)c1ccccc1 | 64 |
| C[C@@H]1O[C@@H]1P(=O)(O)O | 64 |

Provide MIC values for the following items, in order.
1. O=P(Oc1ccccc1)(Oc1ccccc1)[C@@]1(O)CCC[C@@H]1Cl (mixture of isomers)
2. CO/N=C(\C(=O)N[C@@H]1C(=O)N2C(C(=O)O)=C(CSc3nc(=O)c(O)nn3C)CS[C@H]12)c1csc(N)n1
3. C[C@](O)(CCl)P(=O)(Oc1ccccc1)Oc1ccccc1
4. O=C(O)c1cn(C2CC2)c2cc(N3CCNCC3)c(F)cc2c1=O
5. O=P(Oc1ccccc1)(Oc1ccccc1)[C@](O)(CCl)c1ccc(Cl)cc1
6. O=P(Oc1ccccc1)(Oc1ccccc1)[C@@]1(O)c2ccccc2C[C@@H]1Cl (mixture of isomers)

1: 256; 2: 128; 3: 64; 4: 4; 5: 128; 6: 128

###

Tested on: Escherichia coli
Test: Antibacterial activity against ESBL-producing Escherichia coli BW55 at 10 ug by disc diffusion method
Assay type: functional
Settings: read-out: IZ
measured.quantity: zone of inhibition at 10 µg/disc (mm)
Numbers only, in mm.

Below, 4 compounds whose answers are already recorded.
| compound | zone of inhibition at 10 µg/disc / mm |
| --- | --- |
| O=P(Oc1ccccc1)(Oc1ccccc1)[C@](O)(CCl)c1ccccc1 | 10 |
| C[C@](O)(CCl)P(=O)(Oc1ccccc1)Oc1ccccc1 | 7 |
| CC1(C)COP(=O)([C@@](O)(CCl)c2ccc(Cl)cc2)OC1 | 7 |
| O=P(Oc1ccccc1)(Oc1ccccc1)[C@@]1(O)c2ccccc2C[C@@H]1Cl (mixture of isomers) | 8 |

The record that follows has no zone of inhibition at 10 µg/disc shown yet.
Tell us which zone of inhibition at 10 µg/disc value is on record for O=P(Oc1ccccc1)(Oc1ccccc1)[C@](O)(CCl)c1ccc(Cl)cc1
10
